# ED50 annotations
tested on: male mouse; assay: supramaximal electroshock (SES) assay (anticonvulsant activity); type: in vivo; details: ip, male mouse, at peak activity time, protection against extensor tonus; read-out: ANTICONVULSANT ACTIVITY (% Inhibition of Convulsion) ED50 (mg/kg,i.p.)
Answer format: numeric, mg/kg implied, no suffix.

Study these solved cases before continuing.
• CCN1CCN(c2nn(-c3ccc(C(F)(F)F)cc3)c3ccccc23)CC1 = 8.2
• CN1CCN(c2nn(-c3ccc(F)cc3)c3ccccc23)CC1.O=C(O)/C=C/C(=O)O = 12.9
• CN1CCN(c2nn(-c3ccc(C(F)(F)F)cc3)c3ccccc23)CC1.O=C(O)/C=C/C(=O)O = 27
• CP(C)(=O)CN1CCN(c2nn(-c3ccccc3)c3ccccc23)CC1 = 24.3
• NC(=O)N1CCN(c2nn(-c3ccc(F)cc3)c3ccccc23)CC1 = 22.7

q: I have this compound here, "CN1CCN(c2nn(-c3ccccc3)c3ccccc23)CC1.Cl" , and I need its recorded ED50.
a: 14.6

q: I have this compound here, "NC(=O)N1CCN(c2nn(-c3ccccc3Cl)c3ccccc23)CC1" , and I need its recorded ED50.
a: 38.9

The reported measurements were obtained from patent EP0302423A2.
